Would you kindly list composite z-score for each of these molecules?
ASSAY SYSTEM: Alpha-bungarotoxin (Bungarus multicinctus) (UniProt P60615)
Sequence (P60615 whole entry, looked up): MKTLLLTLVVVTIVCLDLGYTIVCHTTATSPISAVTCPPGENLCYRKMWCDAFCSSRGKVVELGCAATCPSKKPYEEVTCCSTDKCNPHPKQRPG
TEST: alpha-bungarotoxin binders on microarray, profiling panel, artefact control for SMM control protein annotation, biochemical, small-molecule microarray, Alexa647 label, 635/667 nm fluorescence (AID 1117)
MEASUREMENT CONDITIONS: alpha-BTX-A647 binding fluorescence, higher = more signal
Answers are plain numbers.

Worked cases, answers included:
MOLECULE	composite z-score
C#CCN(C/C=C/c1ccccc1)[C@H](CO[Si](C)(C)C(C)(C)C)c1ccccc1	-0.482
COC(=O)[C@@]1(CCC(=O)OC(C)(C)C)N=C(c2ccc(OCCCO)cc2)O[C@H]1c1ccccc1CN=[N+]=[N-]	0.592

Your task in this section: give composite z-score for each listed record.
1. CC(C)C[C@H]1NC(=O)[C@H](Cc2ccccc2)NC(=O)[C@@]23C(=O)N[C@@H](Cc4ccccc4)C2[C@H](C)[C@@]2(C)O[C@H]2C3/C=C/C/C=C\CNC1=O (some centres undefined)
2. [N-]=[N+]=NCc1ccccc1[C@@H]1OC(c2ccc(OCCCO)cc2)=N[C@]1(Cc1ccccc1)C(=O)NCc1ccccc1
3. C=CC[C@]1(C(=O)NCCCOC)N=C(c2ccc(OCCCO)cc2)O[C@H]1c1ccccc1

1: 0.93; 2: 0.688; 3: -0.0901

Your task in this section: give composite z-score for each listed record.
1. COCCOC(=O)N1C(=O)[C@@]2(c3cc(C#CCCO)ccc31)[C@H](c1ccccc1OCCO)N1[C@H](c3ccccc3)[C@H](c3ccccc3)OC(=O)[C@H]1[C@@H]2C(=O)N1CCc2cc(OC)c(OC)cc2C1
2. CN(C)CCCC[C@@H]1NC(=O)[C@@H]2C[C@H](C(=O)NCc3ccc(F)cc3)[C@H](c3ccc(O)cc3)N2C1=O
3. COCCCNC(=O)[C@@H]1c2ccccc2C(=O)N(Cc2cc(C(F)(F)F)cc(C(F)(F)F)c2)[C@H]1c1ccc(CO)cc1
4. COc1ccc([Si](C)(C)[C@@H]2[C@@H](CC(=O)N(CCO)Cc3ccccc3)O[C@]3(C(=O)N(Cc4ccc(N5CCC5=O)cc4)c4ccccc43)[C@H]2C)cc1

1. 1.49
2. -0.407
3. -0.543
4. 0.295

Your task in this section: give composite z-score for each listed record.
1. C=CCC(OC(C)=O)[C@@H]1[C@@H](N(Cc2ccc(-c3cccc(C(F)(F)F)c3)o2)C(=O)Cc2ccc(F)cc2)c2cc(OCCCO)ccc2N1C(=O)c1ccc2ccccc2c1 (some centres undefined)
2. COc1ccc([Si](C)(C)[C@H]2[C@H](CCn3cc([C@H](O)c4ccccc4)nn3)O[C@@]3(C(=O)N(C)c4c(Br)cc(C)cc43)[C@@H]2C)cc1
3. O=C1c2ccccc2[C@](Cc2ccccc2I)(C(=O)O)[C@H](c2ccc(CO)cc2)N1Cc1ccccc1
4. [N-]=[N+]=NCc1ccccc1C[C@]1(C(=O)O)COC(c2ccc(OCCCO)cc2)=N1
5. C=C(COC)/C(=C/C[C@H](OC(=O)c1ccncc1)c1cccc(OCCO)c1)c1cnc2ccccc2c1
6. CCOC(=O)C[C@H]1[C@H](OC(=O)c2cc3ccccc3oc2=O)[C@@H](NC(=O)C2CCCCC2)c2cc(OCCCO)ccc2N1C(=O)Cc1ccc(OC)cc1
7. C=CCOC(=O)[C@H]1[C@@H]2C(=O)O[C@@H](c3ccccc3)[C@@H](c3ccccc3)N2[C@@H](c2ccc(OCCOC(=O)[C@@H]3C[C@@H]4C(=O)N[C@@H](Cc5ccccc5)C(=O)N4[C@@H]3c3ccc(O)cc3)cc2)[C@]12C(=O)Nc1ccccc12

[-0.318, 0.14, 2.38, -0.711, 3.02, 0.25, 0.948]
